Assay Remarks: Partition coefficient, log D of the compound at pH 7.4 by HPLC analysis
Applied Conditions: octanol/water
Threshold rule: logD greater than or equal to 2 is 1 (yes); below that, 0 (no).

Molecule Smiles: Cc1ccc2[nH]c3c(c(=O)c2c1)CCC(C)(C)C3
Category: 1 (yes)
//
Molecule Smiles: COc1cc2[nH]c3c(c(=O)c2cc1Cl)CC(F)(F)CC3
Category: 1 (yes)
//
Molecule Smiles: O=c1c2c([nH]c3cc(Cl)ccc13)CCCC2
Category: 1 (yes)

Threshold query (logD >= 2) on O=c1c2c([nH]c3c(Cl)cccc13)CCCC2
1 (yes)

Decide: is the reported value of logD for Cc1cc(C)c2c(=O)c3c([nH]c2c1)CCCC3 equal to or greater than 2?
1 (yes)

Is logD at least 2? Consider COc1ccc2c(=O)c3c([nH]c2c1)CCCCC3
1 (yes)

Assess whether reported logD for COc1ccc2c(=O)c3c([nH]c2c1OC)CCCC3 sits at 2 or higher.
0 (no)

* * *

Assay Remarks: Permeability of the compound by PAMPA method at pH 7.4
Format: ADME
Applied Conditions: read-out: permeability
1 means recorded Papp is 50 ×10⁻⁶ cm/s or above; 0 means it is below 50 ×10⁻⁶ cm/s.

Worked examples follow.
Molecule: O=c1c2c([nH]c3c(Cl)cc(Cl)cc13)CCCC2
Category: 1
--
Molecule: COc1ccc2c(=O)c3c([nH]c2c1)CCC(F)(F)C3
Category: 0
--
Molecule: CC1(C)CCc2[nH]c3cccc(Cl)c3c(=O)c2C1
Category: 1

hey, is Papp for this one >= 50 ×10⁻⁶ cm/s? O=c1c2c([nH]c3cc(Cl)ccc13)CCCC2
1

Is Papp at least 50 ×10⁻⁶ cm/s? Consider Cc1cccc2c(=O)c3c([nH]c12)CCC(C)(C)C3
1

Record O=c1c2c([nH]c3c(F)ccc(F)c13)CCCC2 ; criterion: Papp no lower than 50 ×10⁻⁶ cm/s. Met?
0

Answer whether Papp of O=c1c2c([nH]c3cc(C(F)(F)F)ccc13)CCCCCC2 is greater than or equal to 50 ×10⁻⁶ cm/s.
1

Does Papp meet or surpass 50 ×10⁻⁶ cm/s for COc1cccc2c(=O)c3c([nH]c12)CC(C)(C)CC3 ?
1

Please check the record CC(C)(C)c1ccc2[nH]c3c(c(=O)c2c1)CCCC3 and state if its Papp is at or above 50 ×10⁻⁶ cm/s.
1

Textbook exercise: given the entry Cc1ccc2c(=O)c3c([nH]c2c1)CCCC3 , state whether its Papp is greater than or equal to 50 ×10⁻⁶ cm/s.
0

Please check the record CC1(C)CCc2c([nH]c3c(Cl)cccc3c2=O)C1 and state if its Papp is at or above 50 ×10⁻⁶ cm/s.
1

Kindly determine if Papp recorded for CCOc1ccc2[nH]c3c(c(=O)c2c1)CCCC3 is above or exactly 50 ×10⁻⁶ cm/s.
1

Decide: Papp of CCOC(=O)c1ccc2[nH]c3c(c(=O)c2c1)CCCC3 >= 50 ×10⁻⁶ cm/s?
1

* * *

Assay Remarks: Stability in mouse liver microsomes
Type: ADME, Microsome
Applied Conditions: liver microsomes
Measured Property: half-life (min)
Report the figure in min without appending any unit label.

Compound: COc1ccc2c(=O)c3c([nH]c2c1)CCCC3
Result Unit: min
half-life: 6.8

Kindly indicate its recorded half-life. Item: COc1cc2[nH]c3c(c(=O)c2cc1Cl)C[S+]([O-])CC3 (stereo not given)
990

Give the measured half-life for COc1ccc2c(=O)c3c([nH]c2c1)CC(C)(C)CC3
24.8

Supply reported half-life belonging to this compound: Cc1cc(Oc2ccc(OC(F)(F)F)cc2)ccc1-c1ccc2[nH]c3c(c(=O)c2c1)CSCC3
15.1

Please give measured half-life of the following entry: COc1cc2[nH]c3c(c(=O)c2cc1Cl)CC(F)(F)CC3
8.5

Report measured half-life; entry is O=c1c2c([nH]c3ccc(Cl)cc13)CCC(F)(F)C2
40.8

// Input: COc1ccc2c(=O)c3c([nH]c2c1)CCC(F)(F)C3 . Output its half-life only.
15.8

Where do the numbers come from? From ChEMBL document CHEMBL1799910.
